Listing of IC50 toward Cytochrome P450 2C19 (Homo sapiens, UniProt P33261), each taken from a published source.
attribute.measured: IC50

compound: CC[C@H](C)[C@@H]1C(=O)N[C@H](C2Cc3ccccc3C2)C(=O)N1[C@@H](C(=O)N1CCOCC1)c1ccc(C)nc1C
tested.target: Cytochrome P450 2C19 (Homo sapiens, UniProt P33261)
attribute.measured: IC50
result: > 100 µM
--
compound: Cn1nc(Cc2ccc(NS(N)(=O)=O)cc2)c2ccccc2c1=O
tested.target: Cytochrome P450 2C19 (Homo sapiens, UniProt P33261)
attribute.measured: IC50
result: > 10 µM
--
compound: Cn1c(SCCCN2CCOC(c3ccc(C(F)(F)F)cc3)C2)nnc1-c1ccc(-c2ncco2)cc1 (stereo in doubt; 34)
tested.target: Cytochrome P450 2C19 (Homo sapiens, UniProt P33261)
attribute.measured: IC50
result: > 3 µM
--
compound: C[C@@H]1C(=O)N[C@H](Cc2ccc(F)cc2)C(=O)NCCCc2ccc(F)cc2OCCN[C@@H](C2CC2)C(=O)N1C
tested.target: Cytochrome P450 2C19 (Homo sapiens, UniProt P33261)
attribute.measured: IC50
result: > 100 µM
